Target: UniProt:P20292
Assay: FLAP binding assay (HTRF format)
Conditions: human FLAP wild type, HTRF format; average of two plates, duplicates
pKi: −log10 of the molar value. Counter-ions that a name gives are not always drawn.
MEASUREMENT_KIND: pKi

# count of solved cases: 3
COMPOUND	pKi
CC(C)CNS(=O)(=O)c1ccccc1-c1ccc(-c2cnc(N)nc2)c(F)c1 [Example 294, trifluoroacetic acid salt]	8.70
CC(CO)NS(=O)(=O)c1ccccc1-c1ccc(-c2ccc(N)nc2)c(F)c1 (stereo in doubt) [Example 352]	7.80
Nc1cnc(-c2ccc(-c3ccccc3S(=O)(=O)NC[C@@H](O)CO)cc2F)cn1 [Example 105]	7.60

1: CCNS(=O)(=O)c1ccccc1-c1ccc(-c2cnc(N)cn2)c(F)c1 [Example 16]
2: C[C@H]1CNCCN1S(=O)(=O)c1ccccc1-c1ccc(-c2cnc(N)nc2)c(F)c1 [Example 253]
3: C[C@H](CO)NS(=O)(=O)c1ccccc1-c1ccc(-c2cnc(N)nc2)c(F)c1 [Example 289]
4: CN([C@H]1CCCNC1)S(=O)(=O)c1ccccc1-c1ccc(-c2cnc(N)nc2)c(F)c1 [Example 256]
In this exercise, place the 4 compounds in ascending sequence of their recorded pKi. State the ranking by listing the labels in the requested order.
2, 4, 3, 1

I: CN1CCN(S(=O)(=O)c2ccccc2-c2ccc(-c3cnc(N)cn3)c(F)c2)CC1 [Example 54]
II: Nc1cnc(-c2ccc(-c3ccccc3S(=O)(=O)NCCO)cc2F)cn1 [Example 88]
Between the entries labeled I and II , whose measured pKi is lower? Give the label under which the chosen entry appears.
I

I: Nc1cnc(-c2ccc(-c3ccccc3S(=O)(=O)N3CCNC[C@@H]3CO)cc2F)cn1 [Example 146]
II: C[C@H](NS(=O)(=O)c1ccccc1-c1ccc(-c2cnc(N)cn2)c(F)c1)C(O)c1ccccc1 (stereo in doubt) [Example 83]
Hello, I am sorting some records. Could you say if I or II has the smaller pKi value? When you have decided, please share the label of that item.
I

###

Molecular target: human FLAP (Homo sapiens (Human))
Test: FLAP binding assay (HTRF format)
Details: human FLAP wild type, HTRF format; average of two plates, duplicates
Where a name gives a salt, the structure may show the parent alone.
MEASUREMENT_KIND: Ki (nM)

Record excerpt, results attached:
COMPOUND	TESTED_SYSTEM	READING
CN(C)C1CCN(S(=O)(=O)c2ccccc2-c2ccc(-c3cnc(N)cn3)c(F)c2)CC1	human FLAP (Homo sapiens (Human))	62
C[C@@H](O)CNS(=O)(=O)c1ccccc1-c1ccc(-c2cnc(N)cn2)c(F)c1	human FLAP (Homo sapiens (Human))	8
Nc1ncc(-c2ccc(-c3ccccc3S(=O)(=O)CCCS(=O)(=O)C3CCCCC3)cc2F)cn1	human FLAP (Homo sapiens (Human))	204
Nc1cnc(-c2ccc(-c3ccccc3S(=O)(=O)N3CCCCC3)cc2F)cn1	human FLAP (Homo sapiens (Human))	2
Nc1cnc(-c2ccc(-c3ccccc3S(=O)(=O)N3CC[C@@H](O)C3)cc2F)cn1 [Example 185, trifluoroacetic acid salt]	human FLAP (Homo sapiens (Human))	10
Nc1ncc(-c2ccc(-c3ccccc3NS(=O)(=O)N3CCCC3)cc2F)cn1	human FLAP (Homo sapiens (Human))	214

A: Nc1cnc(-c2ccc(-c3ccccc3S(=O)(=O)NCC3CC3)cc2F)cn1
B: N#CCCN1CCN(S(=O)(=O)c2ccccc2-c2ccc(-c3cnc(N)cn3)c(F)c2)CC1
Between these two entries, A and B , state which has the higher Ki. Kindly state the label of the option you pick.
B

P: Nc1cnc(-c2ccc(-c3ccccc3S(=O)(=O)N3CCc4[nH]ncc4C3)cc2F)cn1
Q: Nc1ncc(-c2ccc(-c3ccccc3Sc3ncncc3N)cc2F)cn1 [Example 331, formate salt]
Hey, between P and Q which has a smaller measured Ki? Let me know the label of the one you choose.
P

###

Biological target: human FLAP (Homo sapiens (Human), UniProt P20292)
Sequence (P20292 whole entry): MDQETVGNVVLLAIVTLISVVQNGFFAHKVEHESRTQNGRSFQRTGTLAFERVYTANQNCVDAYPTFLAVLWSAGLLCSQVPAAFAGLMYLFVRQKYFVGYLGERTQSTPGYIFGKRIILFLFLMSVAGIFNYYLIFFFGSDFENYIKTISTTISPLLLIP
Assay: FLAP binding assay (HTRF format)
Settings: human FLAP wild type, HTRF format; average of two plates, duplicates
Procedure: The ability of the compounds of the present invention to treat a FLAP-mediated disease and/or disorder, or associated symptoms or complications thereof, was determined using the following procedures. Binding assay data represent the average value obtained from two different assay plates, with samples run in duplicate on each plate. Human whole blood assay data represent a single replicate on an assay plate using whole blood from at least one healthy donor. Data are expressed as a HTRF ratio.
Counter-ions that a name gives are not always drawn.
MEASUREMENT_KIND: Ki (nM)

Known Ki results, listed for orientation:
COMPOUND	UNIT_TAG	Ki
CCC(C)(C)NS(=O)(=O)c1ccccc1-c1ccc(-c2ccc(N)nc2)c(F)c1	nM	1
CS(=O)(=O)c1cc(C(F)(F)F)ccc1-c1ccc(-c2cnc(N)cn2)c(F)c1	nM	17
Nc1ncc(-c2ccc(-c3ccccc3S(=O)(=O)N[C@H]3CCCC[C@@H]3O)cc2F)cn1 (racemic)	nM	10
Nc1cc(Sc2ccccc2-c2ccc(-c3cnc(N)nc3)c(F)c2)ncn1 [Example 334, formate salt]	nM	12

I: Nc1cnc(-c2ccc(-c3ccccc3S(=O)(=O)N3CCCC(F)(F)C3)cc2F)cn1
II: Nc1ccc(-c2ccc(-c3ccccc3S(=O)(=O)N3CCC(CO)CC3)cc2F)cn1
III: CC(C)[C@H](CO)NS(=O)(=O)c1ccccc1-c1ccc(-c2cnc(N)nc2)c(F)c1 [Example 273, trifluoroacetic acid salt]
Rank by Ki (largest to smallest). Use the labels to give the requested order.
III, II, I

###

Target: UniProtKB P20292
Test: FLAP binding assay (HTRF format)
Settings: wild type FLAP, HTRF format
MEASUREMENT_KIND: Ki (nM)

COMPOUND	READING
C[C@H](O)CNS(=O)(=O)c1ccccc1-c1ccc(-c2ncc(N)nc2C#N)c(F)c1 [Example 707]	32.7

A: CS(=O)(=O)c1ccccc1-c1ccc(-c2cnc(N)cn2)c(F)c1F [Example 461]
B: Cc1nc(N)cc(Oc2ccccc2-c2ccc(-c3cnc(N)cn3)c(F)c2)n1 [Example 623]
Problem: Given the entries A and B , determine which has the lower reported Ki. Output the label that corresponds to your choice.
B
(B: 4.9 nM, A: 41 nM)

###

Target: human FLAP (Homo sapiens (Human), UniProt P20292)
Experiment: FLAP binding assay (HTRF format)
Conditions: wild type FLAP, HTRF format
Procedure: The ability of the compounds of the present invention to treat a FLAP-mediated disease and/or disorder, or associated symptoms or complications thereof, was determined using the following procedures. Binding assay data represent the average value obtained from two different assay plates, with samples run in duplicate on each plate. Human whole blood assay data represent a single replicate on an assay plate using whole blood from at least one healthy donor. Data are expressed as a HTRF ratio.
Counter-ions that a name gives are not always drawn.
MEASUREMENT_KIND: Ki (nM)

COMPOUND	MEASUREMENT_KIND	READING
N#CCOc1ccccc1-c1ccc(-c2cnc(N)cn2)c(F)c1	Ki	78.8

I: C[C@H](NS(=O)(=O)c1ccccc1-c1ccc(-c2cnc(N)nc2)nc1)C(F)(F)F [Example 685, trifluoroacetic acid salt]
II: N#Cc1cc(Oc2ccccc2-c2ccc(-c3cnc(N)cn3)c(F)c2)ccn1
III: Cc1c(-c2ccccc2NS(C)(=O)=O)ccc(-c2cnc(N)cn2)c1F
Rank order required: Ki, descending. Present the labels in the sequence the task asks for.
III, I, II
(III: 982 nM, I: 52.3 nM, II: 3 nM)

I: CN(c1ccccc1-c1ccc(-c2cnc3[nH]ccc3n2)c(F)c1)S(C)(=O)=O
II: Nc1cnc(-c2ccc(-c3ccccc3N3CCCS3(=O)=O)cc2F)cn1
Out of I and II , name the one with the higher Ki. State the label of the item chosen.
II
(II: 60.5 nM, I: 15 nM)

###

Molecular target: human FLAP (Homo sapiens (Human), UniProt P20292)
Test: FLAP binding assay (HTRF format)
Conditions: wild type FLAP, HTRF format
pKi: −log10 of the molar value.
MEASUREMENT_KIND: pKi

STRUCTURE_STRING	MEASUREMENT_KIND	READING
CCNS(=O)(=O)c1cc(C(F)(F)F)ccc1-c1cnc(-c2cnc(N)nc2)c(F)c1	pKi	8.62
C[C@H](NC(=O)c1cc(C(F)(F)F)ccc1-c1ccc(-c2cnc(N)cn2)c(F)c1)C(F)(F)F	pKi	8.82

A: C[C@@H](NC(=O)c1cc(C(F)(F)F)ccc1-c1ccc(-c2cnc(N)nc2)c(F)c1)C(F)(F)F
B: Nc1ccnc(Oc2cc(C(F)(F)F)ccc2-c2ccc(-c3cnc(N)nc3)c(F)c2)n1
C: Nc1ncc(-c2ccc(-c3ccc(C(F)(F)F)cc3C(=O)N3CCOCC3)cc2F)cn1
D: Nc1ncc(-c2ccc(-c3ccccc3Oc3nccc(C(F)(F)F)n3)cc2F)cn1
Rank descending by pKi. Enter labels, ranked according to the request.
B, A, D, C

Data credit: patent US9079866B2
